molecular target: Cannabinoid receptor 2 (Homo sapiens); experiment: Percent inhibition of specific binding of [3H]WIN-55212-2 towards human cannabinoid receptor 2 from Chinese hamster ovary cell membranes at the concentration of 10 uM
endpoint.label: inhibition (%)
Answers are plain numbers, in %.

{"compound.structure": "CCCCCCCCCCCCCCCC(=O)NCc1ccc(C)cc1", "inhibition, %": 0.7}
{"compound.structure": "CCCCCCCCCCCCCCCC(=O)NCCF", "inhibition, %": 3.9}
{"compound.structure": "CCCCCCCCCCCCCCCC(=O)Nc1ccc(C)cc1", "inhibition, %": 6.5}

Below is a list of compounds. For each, state its recorded inhibition.
1. CCCCCCCCCCCCCCCNC(=O)COC(C)=O
2. CCCCCCCCCCCCCCCC(=O)Nc1ccc(Cl)cc1
3. CCCCCCCCCCCCCCCC(=O)NCC
4. CCCCCCCCCCCCCCCC(=O)Nc1ccccc1
5. CCCCCCCCCCCCCCCC(=O)NC(C)(C)C
6. CCCCCCCCCCCCCCCC(N)=O
7. CCCCCCCCCCCCCCCC(=O)NCc1ccc(OC)cc1
8. CCCCCCCCCCCCCCCC(=O)Nc1ccccc1C

Result ::
1. 6
2. 7.4
3. 10
4. 0.5
5. 2
6. 12.9
7. 3.7
8. 6.5

Query :: inhibition lookup needed for CCCCCCCCCCCCCCCC(=O)N(CC)CC , thanks.
Result :: 2.7
